Tested on: P. mirabilis
test.name: in vitro antibacterial activity (MIC50)
Type: cell-based
measured.endpoint: in vitro antibacterial activity of individual antibiotic (MIC50) (mg/mL)
Answers are plain numbers, in mg/mL.

In: Name the recorded in vitro antibacterial activity of individual antibiotic (MIC50) for CO[C@H]1/C=C/O[C@@]2(C)Oc3c(C)c(O)c4c(O)c(c(/C=N/N5CCN(C)CC5)c(O)c4c3C2=O)NC(=O)/C(C)=C\C=C\[C@H](C)[C@H](O)[C@@H](C)[C@@H](O)[C@@H](C)[C@H](OC(C)=O)[C@@H]1C [Rifampicin] .
Out: 3.77

In: Name the recorded in vitro antibacterial activity of individual antibiotic (MIC50) for C[C@@H](O)[C@H]1C(=O)N2C(C(=O)O)=C(SCCN=CN)C[C@H]12 [Imipenem] .
Out: 1.02

Answer for every listed entry: what is its in vitro antibacterial activity of individual antibiotic (MIC50)? The entries follow.
1. CCC[C@@H]1C[C@@H](C(=O)N[C@@H]([C@H]2O[C@H](SC)[C@H](O)[C@@H](O)[C@H]2O)[C@H](C)Cl)N(C)C1 [Clindamycin]
2. NC[C@H]1O[C@H](O[C@H]2[C@H](O)[C@@H](O[C@H]3O[C@H](CO)[C@@H](O)[C@H](N)[C@H]3O)[C@H](N)C[C@@H]2N)[C@H](N)C[C@@H]1O [Tobramycin]

Out:
23.88
7.2
